test: Quantitative High-Throughput drug screen in 47 multiple myeloma cell lines against the NCATS MIPE library collection: OPM1_PLB cell viability assay (AID 1918989); conditions: CellTiter-Glo, 48 h; series mostly up to 45.8 µM; also: potency is read from the fitted curve at half-maximal effect; nearly all actives have a fitted effect of over 40% in size
Inconclusive results are not listed. Active and inactive are the calls of the source. Calls follow the shape of the dose curve; as a rule, active = well fitted cell-killing curve with a large enough effect; inconclusive = small, poorly fitted or top-dose-only effect, or effect the other way; inactive = no such curve, though single readings can be large or run the other way.
Measurement name: Potency

>>> df
                              sample_smiles            result
0     CN(C)c1ccc2nc3ccc(=[N+](C)C)cc-3sc2c1  3.72 µM (active)
1  CN(C)C(=O)[C@H](O)[C@H](Cc1ccccc1)NC(=O)c1cc2cc(Cl)ccc2[nH]1  6.62 µM (active)

Now consider a different compound.
Reported Potency for "Cc1cc(Cl)ccc1OCCCC(=O)NO" was 20.9 µM (active)
